A collection of compounds and their measured inhibition at 2 µM
Target: CYP17 (Homo sapiens, UniProt P05093)
Sequence (P05093 whole entry): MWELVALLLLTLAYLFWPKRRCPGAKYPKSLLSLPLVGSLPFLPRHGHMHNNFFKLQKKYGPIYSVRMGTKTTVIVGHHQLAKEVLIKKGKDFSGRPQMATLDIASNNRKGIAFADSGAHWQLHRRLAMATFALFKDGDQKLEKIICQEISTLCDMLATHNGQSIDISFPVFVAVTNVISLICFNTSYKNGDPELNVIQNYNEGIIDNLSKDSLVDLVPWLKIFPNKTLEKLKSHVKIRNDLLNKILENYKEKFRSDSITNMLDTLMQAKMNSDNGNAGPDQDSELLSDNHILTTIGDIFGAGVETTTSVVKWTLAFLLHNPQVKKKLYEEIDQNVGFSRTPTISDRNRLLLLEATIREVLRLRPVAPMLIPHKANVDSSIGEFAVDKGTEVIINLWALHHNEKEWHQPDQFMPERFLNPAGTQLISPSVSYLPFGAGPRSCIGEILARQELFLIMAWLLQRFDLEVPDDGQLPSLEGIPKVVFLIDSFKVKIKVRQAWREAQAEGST
Assay: Inhibition of human recombinant CYP17 expressed in Escherichia coli using progesterone as substrate at 2 uM
Conditions: probe progesterone

# SMILES_REPRESENTATION, STUDY_SYSTEM, inhibition at 2 µM
data = [
    ("c1coc(-c2ccc(Cn3ccnc3)cn2)c1", "CYP17 (Homo sapiens, UniProt P05093)", "< 10%"),
    ("COc1ccc(-c2ccc(Cn3ccnc3)cn2)cc1OC", "CYP17 (Homo sapiens, UniProt P05093)", "< 10%"),
    ("c1ccc2c(-c3ccc(Cn4ccnc4)cn3)csc2c1", "CYP17 (Homo sapiens, UniProt P05093)", "< 10%"),
    ("Cc1ccc(-c2ccc(Cn3ccnc3)cn2)cc1N", "CYP17 (Homo sapiens, UniProt P05093)", "< 10%"),
    ("Fc1cccc(-c2ccc(Cn3ccnc3)cn2)c1", "CYP17 (Homo sapiens, UniProt P05093)", "< 10%"),
    ("c1ccc(N(c2ccccc2)c2ccc(-c3ccc(Cn4ccnc4)cn3)cc2)cc1", "CYP17 (Homo sapiens, UniProt P05093)", "< 10%"),
]

Record summary for "Nc1cccc(-c2ccc(Cn3ccnc3)cn2)c1" : reported inhibition at 2 µM = < 10%

Record summary for "c1cn(Cc2ccc(-c3ccoc3)nc2)cn1" : reported inhibition at 2 µM = < 10%

Record summary for "O=Cc1ccc(-c2ccc(Cn3ccnc3)cn2)cc1" : reported inhibition at 2 µM = < 10%

Record summary for "c1cn(Cc2ccc(-c3ccsc3)nc2)cn1" : reported inhibition at 2 µM = < 10%

Record summary for "Fc1ccc(-c2ccc(Cn3ccnc3)cn2)cc1F" : reported inhibition at 2 µM = < 10%

Record summary for "c1csc(-c2ccc(Cn3ccnc3)cn2)c1" : reported inhibition at 2 µM = < 10%

Record summary for "Brc1ncccc1Cn1ccnc1" : reported inhibition at 2 µM = < 10%

* * *

A collection of compounds and their measured pIC50
Target: Cytochrome P450 11B1, mitochondrial (Homo sapiens, UniProt P15538)
Sequence (P15538 whole entry): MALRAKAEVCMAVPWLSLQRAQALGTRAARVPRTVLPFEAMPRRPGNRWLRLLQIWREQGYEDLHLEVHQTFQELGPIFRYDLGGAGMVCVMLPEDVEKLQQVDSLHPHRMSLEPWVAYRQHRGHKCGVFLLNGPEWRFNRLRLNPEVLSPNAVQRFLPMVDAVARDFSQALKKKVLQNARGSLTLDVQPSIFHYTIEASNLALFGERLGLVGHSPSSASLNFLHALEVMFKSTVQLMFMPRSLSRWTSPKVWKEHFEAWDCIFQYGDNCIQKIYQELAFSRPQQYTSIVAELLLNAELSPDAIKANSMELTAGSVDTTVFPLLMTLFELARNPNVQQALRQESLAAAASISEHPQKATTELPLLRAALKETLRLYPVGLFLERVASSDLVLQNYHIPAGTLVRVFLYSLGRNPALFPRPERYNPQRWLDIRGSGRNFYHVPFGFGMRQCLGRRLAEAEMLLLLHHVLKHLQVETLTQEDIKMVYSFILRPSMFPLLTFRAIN
Test: Inhibition of human CYP11B1 expressed in hamster V79 MZ cells using [3H] 11 deoxycorticosterone as substrate by HPLC radioflow detector
pIC50: −log10 of the molar value.

# SMILES_REPRESENTATION, pIC50
rows = [
    ("COc1ccc(-c2ccc(Cn3ccnc3)cn2)cn1", "< 6.00"),
    ("COc1ccc(-c2ccc(Cn3ccnc3)cn2)cc1OC", "< 6.00"),
]

Record summary for "Clc1ncc(Cn2ccnc2)cc1-c1cccs1" : reported pIC50 = 7.14

* * *

Species: Homo sapiens
Experiment: Selectivity ratio of IC50 for human CYP11B2 to IC50 for human CYP11B1
A collection of compounds and their measured Ratio IC50
Reply with just the number.

These recorded examples may help you get a feel for the data.
# SMILES_REPRESENTATION, MEASURED
rows = [
    ("Clc1ncc(Cn2ccnc2)cc1Br", 3.4),
    ("Fc1ccc(-c2ccc(Cn3ccnc3)cn2)cc1F", 5),
    ("c1ccc2cc(-c3ccc(Cn4ccnc4)cn3)ccc2c1", 3.2),
    ("c1cncc(-c2ccc(Cn3ccnc3)cn2)c1", 8),
    ("c1cn(Cc2ccc(-c3ccsc3)nc2)cn1", 26),
]

Record summary for "O=Cc1ccc(-c2ccc(Cn3ccnc3)cn2)s1" : reported Ratio IC50 = 16

Record summary for "c1csc(-c2ncccc2Cn2ccnc2)c1" : reported Ratio IC50 = 16
